targetOrTestSystem: CIB1 and αIIb interaction (CIB1-GST : F-αIIb peptide) (Homo sapiens, UniProt Q99828)
Construct: made in house; host or cells: BL-21 plus RIL cells (E. coli)
Sequence (Q99828 whole entry): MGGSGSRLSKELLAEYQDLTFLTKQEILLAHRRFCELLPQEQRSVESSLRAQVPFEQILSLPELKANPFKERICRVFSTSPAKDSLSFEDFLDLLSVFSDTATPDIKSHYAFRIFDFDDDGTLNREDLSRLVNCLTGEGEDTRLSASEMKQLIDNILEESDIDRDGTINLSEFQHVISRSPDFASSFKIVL
test: FP assay, 1536-well qHTS format (primary and confirmatory screen)
Assay type: binding
assayContext: qHTS FP screen hits, Table S2; read-out: IC50
pIC50: −log10 of the molar value.
measuredProperty: pIC50

compound: COc1ccc(CNC(=O)c2nc(S(=O)(=O)Cc3ccccc3)ncc2Cl)cc1.O=C(O)C(F)(F)F [NCGC00117170-03]
measuredResult: 5.70
//
compound: COc1ccc(NC(=O)c2[nH]c(C)c(C(C)=O)c2C)cc1S(=O)(=O)Nc1ccccc1C#N [NCGC00348145-01]
measuredResult: 4.50
//
compound: FC(F)(F)c1cccc(N2CCN(C(=S)Nc3nccc4cccnc34)CC2)c1.O=C(O)C(F)(F)F [NCGC00244201-01]
measuredResult: 4.55
//
compound: O=C(O)c1cccc(CN2C(=O)/C(=C(\c3ccccc3)c3ccc(Cl)cc3)c3ccccc32)c1 [NCGC00378823-01]
measuredResult: 4.40
//
compound: CC1=NN(c2ccc(C)c(C)c2)C(=O)/C1=N/Nc1cccc(-c2cccc(C(=O)O)c2)c1O [NCGC00274067-01]
measuredResult: 4.35
//
compound: O=C(O)C(F)(F)F.O=C(O)c1ccc(O)c2ncc(N3CCC(N4CCOCC4)C3)cc12 (stereo not shown) [NCGC00241757-01]
measuredResult: 4.45
//
compound: CCN1CCN(c2ccc(Nc3ccc(-c4ccc(C(N)=O)cc4)n4ncnc34)cc2)CC1.O=C(O)C(F)(F)F [NCGC00249351-01]
measuredResult: 4.45
//
compound: CN(C(=O)c1cccs1)c1cccnc1.O=C(O)C(F)(F)F [NCGC00241518-01]
measuredResult: 4.30
//
compound: CCCC1CCN(C(=O)COC(=O)c2ccc(S(C)(=O)=O)c([N+](=O)[O-])c2)CC1 [NCGC00188533-01]
measuredResult: 5.89
//
compound: C[C@@H]1CC[C@]2(C)C3(C)CC[C@@]2(OC3=O)[C@@]12C[C@H](c1ccoc1)OC2=O [NCGC00180662-03]
measuredResult: 5.00
//
compound: CCCC(=O)c1cc(O)c(O)cc1O [NCGC00091839-03]
measuredResult: 3.98
//
compound: CCC(=O)NC(c1cccs1)c1cc(Br)c2cccnc2c1O (stereo not shown) [NCGC00183689-01]
measuredResult: 4.55
//
compound: O=C(O)C(F)(F)F.O=S(=O)(Nc1nc2ccccc2s1)c1ccc(NCc2ccc(Br)cc2O)cc1 [NCGC00319026-01]
measuredResult: 4.40
//
compound: Cc1ccsc1C1N=C(Nc2nc3ccccc3o2)NC2=C1C(=O)CCC2.O=C(O)C(F)(F)F (stereo not shown) [NCGC00189283-01]
measuredResult: 5.10
//
compound: CC(C)NC(=S)N/N=C1\C(=O)Nc2ccccc21.O=C(O)C(F)(F)F [NCGC00229535-01]
measuredResult: 4.90
//
compound: COc1cc2ccccc2cc1C(=O)N/C(S)=N/c1cc(C(=O)O)ccc1C.O=C(O)C(F)(F)F [NCGC00479324-01]
measuredResult: 4.90

###

Below: a set of entries, each annotated with reported Efficacy (%).
targetOrTestSystem: CIB1 and αIIb interaction (CIB1-GST : F-αIIb peptide) (Homo sapiens, UniProt Q99828)
Construct: made in house; host or cells: BL-21 plus RIL cells (E. coli)
test: FP assay, 1536-well qHTS format (primary and confirmatory screen)
Type: binding
assayContext: qHTS primary screen hits, Table S2; negative = inhibition

compound: Cc1cc2nc3c(=O)[nH]c(=O)nc-3n(C[C@H](O)[C@H](O)[C@H](O)CO)c2cc1C
Efficacy (%): -134%
--
compound: O=C(O)C(F)(F)F.O=C1CCCC2=C1C(c1n[nH]cc1Cl)NC(Nc1nc3ccccc3o1)=N2 (centres unmarked)
Efficacy (%): -31%
--
compound: O=C(Nc1ccc(S(=O)(=O)N2CCOCC2)cc1)c1ccc(CN2CCCc3ccccc32)cc1.O=C(O)C(F)(F)F
Efficacy (%): -15%
--
compound: Cc1ccc(C(=O)NC(c2ccco2)c2cc(Cl)c3cccnc3c2O)cc1 (centres unmarked)
Efficacy (%): -23%
--
compound: CC(C)c1ccccc1Cc1cc(C(=O)Nc2ccc(S(=O)(=O)c3ccccc3C(C)(C)C)cc2)c(O)c(O)c1O
Efficacy (%): -27%
--
compound: O=C(O)c1ccccc1Nc1cccc(OCc2ccc3ccccc3n2)c1
Efficacy (%): -42%
--
compound: Cc1ccc(OCCn2c3c(c4ccccc42)CN(C(=O)C2CCCCC2)CC3)cc1.O=C(O)C(F)(F)F
Efficacy (%): -46%
--
compound: Cl.Oc1ccc([C@H]2CNCc3c2ccc(O)c3O)cc1O
Efficacy (%): -93%

###

targetOrTestSystem: CIB1 and αIIb interaction (CIB1-GST : F-αIIb peptide) (Homo sapiens, UniProt Q99828)
Construct: made in house; host or cells: BL-21 plus RIL cells (E. coli)
test: FP assay, 1536-well qHTS format (primary and confirmatory screen)
Format: binding
assayContext: qHTS primary screen of LOPAC/NPACT libraries; negative sign = inhibitory curve
# cutoff -2 applies to Curve Class; >= gives fulfilled, < gives not fulfilled

molecule: CO/N=C(\C(=O)N[C@@H]1C(=O)N2C(C(=O)O)=C(CSc3nc(=O)c(O)nn3C)CSC12)c1csc(N)n1 (stereo partly shown) [NCGC00162111-02]
label: fulfilled
//
molecule: CC(C)N(CCC(=O)c1ccc2ccccc2c1)Cc1ccccc1.Cl [NCGC00016107-09]
label: fulfilled
//
molecule: C=CC(=O)Nc1cccc(Oc2nc(Nc3ccc(N4CCN(C)CC4)cc3)ncc2Cl)c1 [NCGC00346496-04]
label: not fulfilled
//
molecule: CCCC1(CCC)CCC2(CCN(CCCN(CC)CC)C2)CC1.Cl [NCGC00379163-01]
label: not fulfilled
//
molecule: O=C(/C=C/c1ccccc1)OC[C@H]1O[C@@H](OC(=O)c2cc(O)c(O)c(O)c2)[C@H](O)[C@@H](O)[C@@H]1O [NCGC00380690-01]
label: fulfilled
//
molecule: C=CC/C=C\C/C=C\CCCCCCCc1cccc(O)c1C(=O)O [NCGC00169660-02]
label: fulfilled
//
molecule: C[C@@]1(C2CCCC2)Cc2cc(OCC(=O)O)c(Cl)c(Cl)c2C1=O [NCGC00094034-06]
label: not fulfilled
//
molecule: NC1(C(=O)O)CCc2cc(C(=O)O)ccc21 (stereo not shown) [NCGC00015024-06]
label: not fulfilled
//
molecule: N[C@@H](CCC(=O)N[C@H](CSN=O)C(=O)NCC(=O)O)C(=O)O [NCGC00094150-03]
label: fulfilled
//
molecule: C=CC(=O)Nc1cccc(Nc2nc(Nc3ccc(OCCOC)cc3)ncc2F)c1 [NCGC00386306-06]
label: fulfilled
//
molecule: N#CSc1cc(SC#N)c(N)nc1N [NCGC00371134-01]
label: not fulfilled
//
molecule: OCC1O[C@H]([S-])[C@H](O)[C@@H](O)[C@@H]1O.[Au+] (stereo partly shown) [NCGC00162223-02]
label: not fulfilled
//
molecule: C=C1C(=O)O[C@@H]2C(OC(=O)/C(C)=C\C)/C(C)=C\C(=O)/C=C(\C)C[C@H](O)[C@@H]12 (stereo partly shown) [NCGC00381208-01]
label: fulfilled
//
molecule: CC1=C(C(=O)OC2CCCCC2)C(c2ccc([N+](=O)[O-])cc2)C2=C(CC(C)(C)CC2=O)N1 (stereo not shown) [NCGC00370923-11]
label: not fulfilled
//
molecule: Cn1cc(-c2cnc3ccc4ccc(CS(=O)(=O)NCc5ccccn5)cc4c(=O)c3c2)cn1 [NCGC00378567-02]
label: fulfilled
//
molecule: CN(C)c1cc2c(Nc3ccc4c(cnn4Cc4ccccc4)c3)ncnc2cn1 [NCGC00015468-06]
label: not fulfilled
